Ref: patent US7923465B2

molecular target: UniProtKB P20272; assay: Rat CB1 receptor binding using brain membrane, [3H]SR141716A displacement (Protocol I); parameters: CB1 receptor present in a rat brain membrane preparation; from tissue; host or cells: rat brain membrane; dose or concentration left out as unconfirmed; details: 1 h; rat brain membrane, [3H]SR141716A displacement; read-out: % Displacement Protocol I
Sequence (P20272 whole entry): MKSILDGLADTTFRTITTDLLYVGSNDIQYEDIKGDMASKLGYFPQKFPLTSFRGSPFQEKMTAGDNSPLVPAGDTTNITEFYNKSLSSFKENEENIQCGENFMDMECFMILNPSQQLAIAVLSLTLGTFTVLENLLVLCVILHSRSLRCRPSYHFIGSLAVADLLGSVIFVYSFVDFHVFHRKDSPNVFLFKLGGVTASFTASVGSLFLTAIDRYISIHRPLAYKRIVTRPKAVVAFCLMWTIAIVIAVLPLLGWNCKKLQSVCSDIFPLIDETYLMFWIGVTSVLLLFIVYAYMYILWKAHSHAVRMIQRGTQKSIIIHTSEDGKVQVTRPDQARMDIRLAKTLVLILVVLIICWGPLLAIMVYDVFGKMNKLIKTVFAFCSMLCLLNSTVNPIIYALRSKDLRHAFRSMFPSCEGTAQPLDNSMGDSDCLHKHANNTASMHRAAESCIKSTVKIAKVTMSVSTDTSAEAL
Please enter 1.0 where inhibition is greater than or equal to 30%, and 0.0 where it is lower.

Q: Is inhibition for O=C(NN1CCCCC1)c1nn(-c2ccc(F)cc2F)c2c1C1CCC2C1 (centres unmarked) at or above 30%?
A: 1.0

Q: # check: inhibition of O=C(NC1CCCCC1)c1nn(-c2ccccc2Cl)c2c1C1CCC2C1 (centres unmarked) is greater than or equal to 30%
A: 0.0

Q: Threshold query (inhibition >= 30%) on CN(NC(=O)c1nn(-c2ccc(Cl)cc2)c2c1C1CCC2C1)C1CCCCC1 (centres unmarked)
A: 1.0

Q: Does the reported inhibition for O=C(NCCc1ccccc1)c1nn(-c2ccc(Cl)cc2Cl)c2c1C1CC3CC(C1)CC2C3 fall at or above the 30% mark?
A: 1.0

Q: Exam item: decide whether the reported inhibition for Cc1ccc(-n2nc(C(=O)NNc3ccc(Cl)cc3Cl)c3c2C2CC4CC(CC3C4)C2)cc1 is at least 30%.
A: 0.0

Q: Is inhibition for O=C(NNc1ccccc1)c1nn(-c2ccc(Cl)cc2)c2c1C1CCC2C1 (centres unmarked) at or above 30%?
A: 0.0

Q: Record O=C(NN(C1CCCCC1)C1CCCCC1)c1nn(-c2ccc(Cl)cc2Cl)c2c1C1CCC2C1 (centres unmarked) ; criterion: inhibition no lower than 30%. Met?
A: 0.0
